Test: Plasma pharmacokinetics of GDC-0853 on day 1 and day 15 (LC-MS/MS)
Assay type: in vivo, human
Settings: human, plasma, po, 100 mg, 100 mg (n = 6), oral, plasma; read-out: Day 1 Tmax Median (range)
measuredMetric: Tmax (h)

{"columns": ["querySmiles", "reportedResult"],
 "data": [
  ["C[C@H]1CN(C2COC2)CCN1c1ccc(Nc2cc(-c3ccnc(N4CCn5c(cc6c5CC(C)(C)C6)C4=O)c3CO)cn(C)c2=O)nc1", 2.07]
]}

----------
Experiment: Plasma pharmacokinetics of GDC-0853 on day 1 and day 15 (LC-MS/MS)
Format: in vivo, human
Conditions: human; 200 mg (n = 9), oral, plasma; read-out: Day 1 AUC0-inf Mean (%CV)

{"columns": ["querySmiles", "AUC(0-inf)"],
 "data": [
  ["C[C@H]1CN(C2COC2)CCN1c1ccc(Nc2cc(-c3ccnc(N4CCn5c(cc6c5CC(C)(C)C6)C4=O)c3CO)cn(C)c2=O)nc1", "5.15 µM·h"]
]}

----------
Test: Plasma pharmacokinetics of GDC-0853 on day 1 and day 15 (LC-MS/MS)
Format: in vivo, human
Details: human, plasma, po, 400 mg, 400 mg (n = 9), oral, plasma; read-out: Day 1 Cmax Mean (%CV)

{"columns": ["querySmiles", "measurementUnits", "Cmax"],
 "data": [
  ["C[C@H]1CN(C2COC2)CCN1c1ccc(Nc2cc(-c3ccnc(N4CCn5c(cc6c5CC(C)(C)C6)C4=O)c3CO)cn(C)c2=O)nc1", "nM", 2180]
]}

----------
Assay: Plasma pharmacokinetics of GDC-0853 on day 1 and day 15 (LC-MS/MS)
Type: in vivo, human
Conditions: human, plasma, po, 400 mg, 400 mg (n = 9), oral, plasma; read-out: Day 1 Tmax Median (range)

{"columns": ["querySmiles", "Tmax"],
 "data": [
  ["C[C@H]1CN(C2COC2)CCN1c1ccc(Nc2cc(-c3ccnc(N4CCn5c(cc6c5CC(C)(C)C6)C4=O)c3CO)cn(C)c2=O)nc1", "1.17 h"]
]}

----------
Assay: Plasma pharmacokinetics of GDC-0853 on day 1 and day 15 (LC-MS/MS)
Type: in vivo, human
Settings: human; 400 mg (n = 9) QD, oral, plasma; read-out: Day 15 AUC0-24 Mean (%CV)

{"columns": ["querySmiles", "AUC(0-t) [µM·h]"],
 "data": [
  ["C[C@H]1CN(C2COC2)CCN1c1ccc(Nc2cc(-c3ccnc(N4CCn5c(cc6c5CC(C)(C)C6)C4=O)c3CO)cn(C)c2=O)nc1", 11.7]
]}

----------
Assay: Plasma pharmacokinetics of GDC-0853 on day 1 and day 15 (LC-MS/MS)
Type: in vivo, human
Conditions: human; 200 mg (n = 9), oral, plasma; read-out: Day 1 T1/2 Mean (%CV) (converted)

{"columns": ["querySmiles", "half-life"],
 "data": [
  ["C[C@H]1CN(C2COC2)CCN1c1ccc(Nc2cc(-c3ccnc(N4CCn5c(cc6c5CC(C)(C)C6)C4=O)c3CO)cn(C)c2=O)nc1", "6.62 h"]
]}

----------
Test: Plasma pharmacokinetics of GDC-0853 on day 1 and day 15 (LC-MS/MS)
Format: in vivo, human
Conditions: human; 100 mg (n = 6), oral, plasma; read-out: Day 1 T1/2 Mean (%CV) (converted)
measuredMetric: half-life (h)

{"columns": ["querySmiles", "measuredMetric", "measurementUnits", "reportedResult"],
 "data": [
  ["C[C@H]1CN(C2COC2)CCN1c1ccc(Nc2cc(-c3ccnc(N4CCn5c(cc6c5CC(C)(C)C6)C4=O)c3CO)cn(C)c2=O)nc1", "half-life", "h", 13.7]
]}

----------
Assay: Plasma pharmacokinetics of GDC-0853 on day 1 and day 15 (LC-MS/MS)
Type: in vivo, human
Conditions: human, plasma, po, 100 mg, 100 mg (n = 6), oral, plasma; read-out: Day 1 Cmax Mean (%CV)
measuredMetric: Cmax (nM)

{"columns": ["molecule", "measuredMetric", "reportedResult"],
 "data": [
  ["C[C@H]1CN(C2COC2)CCN1c1ccc(Nc2cc(-c3ccnc(N4CCn5c(cc6c5CC(C)(C)C6)C4=O)c3CO)cn(C)c2=O)nc1 [GDC-0853]", "Cmax", 180]
]}

----------
Test: Plasma pharmacokinetics of GDC-0853 on day 1 and day 15 (LC-MS/MS)
Assay type: in vivo, human
Conditions: human, plasma, po, 100 mg, 100 mg (n = 6) QD, oral, plasma; read-out: Day 15 Cmax Mean (%CV)

{"columns": ["querySmiles", "Cmax"],
 "data": [
  ["C[C@H]1CN(C2COC2)CCN1c1ccc(Nc2cc(-c3ccnc(N4CCn5c(cc6c5CC(C)(C)C6)C4=O)c3CO)cn(C)c2=O)nc1", "354 nM"]
]}

----------
Assay: Plasma pharmacokinetics of GDC-0853 on day 1 and day 15 (LC-MS/MS)
Format: in vivo, human
Details: human; 100 mg (n = 6), oral, plasma; read-out: Day 1 AUC0-inf Mean (%CV)
measuredMetric: AUC(0-inf) (µM·h)

{"columns": ["querySmiles", "measuredMetric", "measurementUnits", "reportedResult"],
 "data": [
  ["C[C@H]1CN(C2COC2)CCN1c1ccc(Nc2cc(-c3ccnc(N4CCn5c(cc6c5CC(C)(C)C6)C4=O)c3CO)cn(C)c2=O)nc1", "AUC(0-inf)", "µM·h", 1.3]
]}

----------
Assay: Plasma pharmacokinetics of GDC-0853 on day 1 and day 15 (LC-MS/MS)
Format: in vivo, human
Conditions: human; 200 mg (n = 9) QD, oral, plasma; read-out: Day 15 AUC0-24 Mean (%CV)

{"columns": ["querySmiles", "measurementUnits", "AUC(0-t)"],
 "data": [
  ["C[C@H]1CN(C2COC2)CCN1c1ccc(Nc2cc(-c3ccnc(N4CCn5c(cc6c5CC(C)(C)C6)C4=O)c3CO)cn(C)c2=O)nc1", "µM·h", 4.27]
]}

----------
Test: Plasma pharmacokinetics of GDC-0853 on day 1 and day 15 (LC-MS/MS)
Format: in vivo, human
Conditions: human, plasma, po, 200 mg, 200 mg (n = 9) QD, oral, plasma; read-out: Day 15 Cmax Mean (%CV)

{"columns": ["querySmiles", "Cmax (nM)"],
 "data": [
  ["C[C@H]1CN(C2COC2)CCN1c1ccc(Nc2cc(-c3ccnc(N4CCn5c(cc6c5CC(C)(C)C6)C4=O)c3CO)cn(C)c2=O)nc1", 925]
]}

----------
Experiment: Plasma pharmacokinetics of GDC-0853 on day 1 and day 15 (LC-MS/MS)
Type: in vivo, human
Details: human, plasma, po, 200 mg, 200 mg (n = 9), oral, plasma; read-out: Day 1 Cmax Mean (%CV)

{"columns": ["molecule", "Cmax [nM]"],
 "data": [
  ["C[C@H]1CN(C2COC2)CCN1c1ccc(Nc2cc(-c3ccnc(N4CCn5c(cc6c5CC(C)(C)C6)C4=O)c3CO)cn(C)c2=O)nc1 [GDC-0853]", 861]
]}

----------
Test: Plasma pharmacokinetics of GDC-0853 on day 1 and day 15 (LC-MS/MS)
Assay type: in vivo, human
Details: human; 100 mg (n = 6) QD, oral, plasma; read-out: Day 15 AUC0-24 Mean (%CV)
measuredMetric: AUC(0-t) (µM·h)

{"columns": ["querySmiles", "measurementUnits", "reportedResult"],
 "data": [
  ["C[C@H]1CN(C2COC2)CCN1c1ccc(Nc2cc(-c3ccnc(N4CCn5c(cc6c5CC(C)(C)C6)C4=O)c3CO)cn(C)c2=O)nc1", "µM·h", 1.81]
]}

----------
Assay: Plasma pharmacokinetics of GDC-0853 on day 1 and day 15 (LC-MS/MS)
Type: in vivo, human
Settings: human; 400 mg (n = 9), oral, plasma; read-out: Day 1 AUC0-inf Mean (%CV)

{"columns": ["compound", "AUC(0-inf) (µM·h)"],
 "data": [
  ["C[C@H]1CN(C2COC2)CCN1c1ccc(Nc2cc(-c3ccnc(N4CCn5c(cc6c5CC(C)(C)C6)C4=O)c3CO)cn(C)c2=O)nc1 [GDC-0853]", 11.4]
]}

----------
Assay: Plasma pharmacokinetics of GDC-0853 on day 1 and day 15 (LC-MS/MS)
Type: in vivo, human
Details: human, plasma, po, 100 mg, 100 mg (n = 6) QD, oral, plasma; read-out: Day 15 Tmax Median (range)
measuredMetric: Tmax (h)

{"columns": ["querySmiles", "reportedResult"],
 "data": [
  ["C[C@H]1CN(C2COC2)CCN1c1ccc(Nc2cc(-c3ccnc(N4CCn5c(cc6c5CC(C)(C)C6)C4=O)c3CO)cn(C)c2=O)nc1", 2.97]
]}

----------
Assay: Plasma pharmacokinetics of GDC-0853 on day 1 and day 15 (LC-MS/MS)
Assay type: in vivo, human
Conditions: human, plasma, po, days 1 and 15, across 100–400 mg cohorts; read-out: Time of peak concentrations (median Tmax)
measuredMetric: Tmax

{"columns": ["molecule", "reportedResult"],
 "data": [
  ["C[C@H]1CN(C2COC2)CCN1c1ccc(Nc2cc(-c3ccnc(N4CCn5c(cc6c5CC(C)(C)C6)C4=O)c3CO)cn(C)c2=O)nc1 [GDC-0853]", "1 to 3 h"]
]}
